Record form. Attribute: protection (pct of control). Fill in for each entry.
PROTOCOL SUMMARY: blockers of measles virus-induced cell death – single point, MLSMR library, absorbance, measles RdRp inhibitor project, primary screen (AID 841)
ASSAY CONDITIONS: Measles virus-infected cells, CPE protection, at 4 µM, hits give high values
About 2,100 (1.5%) of roughly 140,000 compounds were called active. This excerpt belongs to a sample that is enriched for actives.
Please state the figure in %; there is no need to write the unit.

Query: Param item = Cc1nn(Cc2ccc(F)cc2)c(C)c1NC(=O)c1cccnc1Cl ; retrieve measured protection (pct of control).
Response: 10.5

Query: Can you handle CCC(=O)Nc1sc(C(=O)N2CCCCC2)c(C)c1C#N next?
Response: 34.3

Query: Can you handle O=C(Nc1ccccc1)N1CCN(Cc2ccccc2)CC1 next?
Response: 65.6

Query: Can you handle O=C(NC(=S)N1CCN(Cc2ccccc2)CC1)c1ccccc1 next?
Response: 18

Query: Can you handle Cc1ccc(S(=O)(=O)N(NC2=NS(=O)(=O)c3ccccc32)C(=O)c2ccccc2)cc1 next?
Response: 7.51
